Could you please report measured residual activity for the items listed next?
- system.under.test: CDK6 CCND3 (human) (UniProt P30281+Q00534)
- Sequence (P30281 whole entry, looked up): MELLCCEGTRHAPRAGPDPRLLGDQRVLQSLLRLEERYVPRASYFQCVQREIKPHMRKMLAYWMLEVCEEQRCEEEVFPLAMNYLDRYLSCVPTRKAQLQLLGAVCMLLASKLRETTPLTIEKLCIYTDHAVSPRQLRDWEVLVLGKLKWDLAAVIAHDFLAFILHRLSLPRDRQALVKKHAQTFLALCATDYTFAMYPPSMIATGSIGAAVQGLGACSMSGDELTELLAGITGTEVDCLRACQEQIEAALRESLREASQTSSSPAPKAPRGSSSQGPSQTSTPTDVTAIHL
- Sequence (Q00534 whole entry, looked up): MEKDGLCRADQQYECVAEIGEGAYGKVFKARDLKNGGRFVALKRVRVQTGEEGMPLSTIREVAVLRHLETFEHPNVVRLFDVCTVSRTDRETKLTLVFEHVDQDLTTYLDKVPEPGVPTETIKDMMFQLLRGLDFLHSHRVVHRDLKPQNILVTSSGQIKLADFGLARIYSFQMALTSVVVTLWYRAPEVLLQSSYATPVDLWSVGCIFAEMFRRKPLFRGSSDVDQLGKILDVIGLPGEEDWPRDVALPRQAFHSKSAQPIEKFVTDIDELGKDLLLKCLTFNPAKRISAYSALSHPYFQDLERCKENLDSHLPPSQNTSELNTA
- assay.procedure: radiometric filter-binding kinase assay, Kinase HotSpot
- assay.context: compound 0.5 µM; ATP 10 µM
Numbers only, in %.

compound: Cc1ccc(NC(=O)c2ccc(CN3CCN(C)CC3)cc2)cc1Nc1nccc(-c2cccnc2)n1
unit.string: %
residual activity: 103
//
compound: CCn1cnc2c(Nc3cccc(Cl)c3)nc(N[C@@H]3CCCC[C@@H]3N)nc21
unit.string: %
residual activity: 76.9
//
compound: Cn1sc(=O)n(Cc2ccccc2)c1=O
unit.string: %
residual activity: 100
//
compound: O=C1NC(=O)/C(=C\c2ccc3nccnc3c2)S1
unit.string: %
residual activity: 95.8
//
compound: O=C1NC(=O)C(c2c[nH]c3ccccc23)=C1c1c[nH]c2ccccc12
unit.string: %
residual activity: 103

Give one value of residual activity per listed compound.
1. CC(=O)O/N=C1\C(=C2\C(=O)Nc3cc(Br)ccc32)Nc2ccccc21
2. CN([C@@H](Cc1ccc(OS(=O)(=O)c2cccc3cnccc23)cc1)C(=O)N1CCN(c2ccccc2)CC1)S(=O)(=O)c1cccc2cnccc12
3. CN(C)C[C@H]1CCn2c(c(C3=C(c4cn(C)c5ccccc45)C(=O)NC3=O)c3ccccc32)C1

40.9
105
95

###

- system.under.test: INSR (human)
- assay.procedure: radiometric filter-binding kinase assay, Kinase HotSpot
- assay.context: compound 0.5 µM; ATP 10 µM
attribute.measured: residual activity (%)
Answers are plain numbers, in %.

Below: 5 molecules and their reported residual activity.
molecule: CC(C)c1nn(-c2c(Cl)cccc2Cl)c2nc(Cc3ccc(OCCO)cc3)nc(O)c12
system.under.test: INSR (human)
unit.string: %
residual activity: 100
--
molecule: O=C1NC(=O)/C(=C\c2ccc3nccnc3c2)S1
system.under.test: INSR (human)
unit.string: %
residual activity: 108
--
molecule: CN([C@@H](Cc1ccc(OS(=O)(=O)c2cccc3cnccc23)cc1)C(=O)N1CCN(c2ccccc2)CC1)S(=O)(=O)c1cccc2cnccc12
system.under.test: INSR (human)
unit.string: %
residual activity: 98.8
--
molecule: CC(C)[C@H](CO)Nc1nc(Nc2cc(N)cc(Cl)c2)c2ncn(C(C)C)c2n1
system.under.test: INSR (human)
unit.string: %
residual activity: 85
--
molecule: O=C(Nc1cccc(Nc2cc(Nc3cccc(C(F)(F)F)c3)ncn2)c1)C1CC1
system.under.test: INSR (human)
unit.string: %
residual activity: 103

// input: 6 molecules below; output: residual activity for each
1. Cn1nc2c3c(cccc31)C(=O)c1ccccc1-2
2. O=C1Nc2ccccc2/C1=C1/Nc2ccccc2/C1=N\OCCC(O)CO (stereo unspecified)
3. O=C1Nc2ccccc2/C1=C1\Nc2ccccc2\C1=N/O
4. O=C(O)/C=C/c1cc(Br)c(Br)c(Br)c1Br
5. O=C1NC(=O)C(c2c[nH]c3ccccc23)=C1c1c[nH]c2ccccc12
6. COc1cc2ncnc(N3CCN(C(=O)Nc4ccc(Oc5ccccc5)cc4)CC3)c2cc1OC

[99.5, 44.9, 66.8, 98.6, 99.6, 98.2]

###

- system.under.test: DYRK4 (human)
- assay.procedure: radiometric filter-binding kinase assay, Kinase HotSpot
- assay.context: compound 0.5 µM; ATP 10 µM
attribute.measured: residual activity

compound: O=C1NC(=O)/C(=C\c2ccc3nccnc3c2)S1
obs.value: 96.5%

compound: Cc1nc2cc3nc(-c4cccs4)cnc3cc2n1C
obs.value: 104%

compound: O=C(CCCc1ccc(-c2ccccc2F)cc1)Nc1ccc(O)cc1
obs.value: 97.4%

compound: CCn1cnc2c(Nc3cccc(Cl)c3)nc(N[C@@H]3CCCC[C@@H]3N)nc21
obs.value: 95.1%

compound: O=C(Nc1cccc(Nc2cc(Nc3cccc(C(F)(F)F)c3)ncn2)c1)C1CC1
obs.value: 98%

Provide reported residual activity for each item, in the same order as listed.
1. CN([C@@H](Cc1ccc(OS(=O)(=O)c2cccc3cnccc23)cc1)C(=O)N1CCN(c2ccccc2)CC1)S(=O)(=O)c1cccc2cnccc12
2. Oc1ccc(Nc2nc(-c3ccc(Cl)cc3)cs2)cc1

1: 97.8%; 2: 95.9%

###

- system.under.test: CHEK2 (human) (UniProt O96017)
- Sequence (O96017 whole entry, looked up): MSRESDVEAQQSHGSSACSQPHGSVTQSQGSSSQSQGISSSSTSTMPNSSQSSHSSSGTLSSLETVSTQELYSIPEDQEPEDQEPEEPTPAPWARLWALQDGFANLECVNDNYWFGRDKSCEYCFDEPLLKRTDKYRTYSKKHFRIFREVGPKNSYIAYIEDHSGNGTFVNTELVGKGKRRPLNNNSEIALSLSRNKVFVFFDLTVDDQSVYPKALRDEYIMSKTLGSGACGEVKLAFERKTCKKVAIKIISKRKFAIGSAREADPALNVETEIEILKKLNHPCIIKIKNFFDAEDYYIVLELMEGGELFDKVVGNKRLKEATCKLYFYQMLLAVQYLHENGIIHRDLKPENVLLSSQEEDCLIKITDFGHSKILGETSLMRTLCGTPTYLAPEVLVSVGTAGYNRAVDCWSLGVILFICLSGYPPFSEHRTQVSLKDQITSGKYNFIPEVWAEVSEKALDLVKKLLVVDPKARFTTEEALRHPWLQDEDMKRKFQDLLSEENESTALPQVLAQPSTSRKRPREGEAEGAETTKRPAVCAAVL
- assay.procedure: radiometric filter-binding kinase assay, Kinase HotSpot
- assay.context: compound 0.5 µM; ATP 10 µM
I'd appreciate it if you could supply residual activity values for the items below.
Give bare numbers, in %.

Field: example entries. Status: answers known.
given.smiles: Cn1sc(=O)n(Cc2ccccc2)c1=O
unit.string: %
residual activity: 108
--
given.smiles: CC(C)[C@H](CO)Nc1nc(Nc2cc(N)cc(Cl)c2)c2ncn(C(C)C)c2n1
unit.string: %
residual activity: 96.3
--
given.smiles: Nc1nnc2[nH]c3ccccc3nc1-2
unit.string: %
residual activity: 94.4
--
given.smiles: Oc1ccc(Nc2nc(-c3ccc(Cl)cc3)cs2)cc1
unit.string: %
residual activity: 97.9
--
given.smiles: CCn1cnc2c(Nc3cccc(Cl)c3)nc(N[C@@H]3CCCC[C@@H]3N)nc21
unit.string: %
residual activity: 79.9

Consider the record given below.
Write down the reported residual activity (system: CHEK2 (human) (UniProt O96017)) of `Cc1nc2cc3nc(-c4cccs4)cnc3cc2n1C`
94.6

###

- system.under.test: HIPK2 (human)
- assay.procedure: radiometric filter-binding kinase assay, Kinase HotSpot
- assay.context: compound 0.5 µM; ATP 10 µM
Kindly state residual activity for each of the entries shown.
One number for each entry, in %.

Reference set, count: 2
molecule: CCn1cnc2c(Nc3cccc(Cl)c3)nc(N[C@@H]3CCCC[C@@H]3N)nc21
unit.string: %
residual activity: 94

molecule: Cn1sc(=O)n(Cc2ccccc2)c1=O
unit.string: %
residual activity: 99.6

Quick batch: residual activity for everything below.
1. O=C1Nc2ccccc2/C1=C1/Nc2ccccc2/C1=N\OCCC(O)CO (stereo not given)
2. O=C(O)/C=C/c1cc(Br)c(Br)c(Br)c1Br
3. CC(=O)O/N=C1\C(=C2\C(=O)Nc3cc(Br)ccc32)Nc2ccccc21
4. CN(C)C[C@H]1CCn2c(c(C3=C(c4cn(C)c5ccccc45)C(=O)NC3=O)c3ccccc32)C1
5. O=C(Nc1cccc(Nc2cc(Nc3cccc(C(F)(F)F)c3)ncn2)c1)C1CC1

97.6
82.2
99.1
94.1
107

###

- system.under.test: KDR (human)
- assay.procedure: radiometric filter-binding kinase assay, Kinase HotSpot
- assay.context: compound 0.5 µM; ATP 10 µM
Please go through the items and note down their residual activity.
Numbers only, in %.

// solved cases for residual activity follow
given.smiles: O=C1NC(=O)/C(=C\c2ccc3nccnc3c2)S1
residual activity, %: 92.6
--
given.smiles: CC(=O)O/N=C1\C(=C2\C(=O)Nc3cc(Br)ccc32)Nc2ccccc21
residual activity, %: 74.2

List reported residual activity for each of these molecules:
1. Cn1sc(=O)n(Cc2ccccc2)c1=O
2. O=C(Nc1cccc(Nc2cc(Nc3cccc(C(F)(F)F)c3)ncn2)c1)C1CC1
3. CCn1cnc2c(Nc3cccc(Cl)c3)nc(N[C@@H]3CCCC[C@@H]3N)nc21
4. CCN(CC)CCCCN1c2ccccc2Oc2ccc(Cl)cc21
5. COc1cc2ncc(-c3ccccc3)nc2cc1OC
6. COc1ccc(CNC(=O)Nc2ncc([N+](=O)[O-])s2)cc1

[89.4, 101, 96.5, 93.7, 85.4, 85.7]

// each molecule listed below needs its residual activity
1. CN(C)C[C@H]1CCn2c(c(C3=C(c4cn(C)c5ccccc45)C(=O)NC3=O)c3ccccc32)C1
2. O=C1Nc2ccccc2/C1=C1\Nc2ccccc2\C1=N/O

1. 101
2. 72.9

Read off the recorded residual activity for `CC(C)c1nn(-c2c(Cl)cccc2Cl)c2nc(Cc3ccc(OCCO)cc3)nc(O)c12`
105

###

- system.under.test: PLK2 (human) (UniProt Q9NYY3)
- Sequence (Q9NYY3 whole entry, looked up): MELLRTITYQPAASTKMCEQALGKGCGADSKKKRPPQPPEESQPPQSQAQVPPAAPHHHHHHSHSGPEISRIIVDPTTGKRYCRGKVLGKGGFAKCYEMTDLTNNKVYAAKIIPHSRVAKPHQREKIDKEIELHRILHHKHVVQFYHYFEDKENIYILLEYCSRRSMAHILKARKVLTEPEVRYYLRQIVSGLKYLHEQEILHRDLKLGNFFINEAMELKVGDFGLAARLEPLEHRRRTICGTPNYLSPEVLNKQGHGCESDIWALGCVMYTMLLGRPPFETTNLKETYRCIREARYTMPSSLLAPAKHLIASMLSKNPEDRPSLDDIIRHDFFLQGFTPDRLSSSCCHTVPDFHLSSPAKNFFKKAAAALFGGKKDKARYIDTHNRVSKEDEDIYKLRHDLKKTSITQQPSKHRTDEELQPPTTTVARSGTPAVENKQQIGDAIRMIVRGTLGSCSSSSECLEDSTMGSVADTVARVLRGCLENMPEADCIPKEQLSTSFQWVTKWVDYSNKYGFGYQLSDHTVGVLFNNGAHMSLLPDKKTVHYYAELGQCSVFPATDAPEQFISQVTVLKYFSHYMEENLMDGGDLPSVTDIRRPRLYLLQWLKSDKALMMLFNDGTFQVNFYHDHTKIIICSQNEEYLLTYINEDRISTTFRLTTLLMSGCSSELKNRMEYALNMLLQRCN
- assay.procedure: radiometric filter-binding kinase assay, Kinase HotSpot
- assay.context: compound 0.5 µM; ATP 10 µM
attribute.measured: residual activity (%)
Answers are plain numbers, in %.

See these solved cases before continuing.
given.smiles: O=C(Nc1cccc(Nc2cc(Nc3cccc(C(F)(F)F)c3)ncn2)c1)C1CC1
residual activity, %: 109
//
given.smiles: CCN(CC)CCCCN1c2ccccc2Oc2ccc(Cl)cc21
residual activity, %: 103
//
given.smiles: Cc1nc2cc3nc(-c4cccs4)cnc3cc2n1C
residual activity, %: 99.4

Next, consider the following compound.
Input `O=C1Cc2c([nH]c3ccc(Br)cc23)-c2ccccc2N1` , output reported residual activity.
99.1

###

- system.under.test: CDK9 CCNT1 (human) (UniProt P50750+O60563)
- Sequence (O60563 whole entry, looked up): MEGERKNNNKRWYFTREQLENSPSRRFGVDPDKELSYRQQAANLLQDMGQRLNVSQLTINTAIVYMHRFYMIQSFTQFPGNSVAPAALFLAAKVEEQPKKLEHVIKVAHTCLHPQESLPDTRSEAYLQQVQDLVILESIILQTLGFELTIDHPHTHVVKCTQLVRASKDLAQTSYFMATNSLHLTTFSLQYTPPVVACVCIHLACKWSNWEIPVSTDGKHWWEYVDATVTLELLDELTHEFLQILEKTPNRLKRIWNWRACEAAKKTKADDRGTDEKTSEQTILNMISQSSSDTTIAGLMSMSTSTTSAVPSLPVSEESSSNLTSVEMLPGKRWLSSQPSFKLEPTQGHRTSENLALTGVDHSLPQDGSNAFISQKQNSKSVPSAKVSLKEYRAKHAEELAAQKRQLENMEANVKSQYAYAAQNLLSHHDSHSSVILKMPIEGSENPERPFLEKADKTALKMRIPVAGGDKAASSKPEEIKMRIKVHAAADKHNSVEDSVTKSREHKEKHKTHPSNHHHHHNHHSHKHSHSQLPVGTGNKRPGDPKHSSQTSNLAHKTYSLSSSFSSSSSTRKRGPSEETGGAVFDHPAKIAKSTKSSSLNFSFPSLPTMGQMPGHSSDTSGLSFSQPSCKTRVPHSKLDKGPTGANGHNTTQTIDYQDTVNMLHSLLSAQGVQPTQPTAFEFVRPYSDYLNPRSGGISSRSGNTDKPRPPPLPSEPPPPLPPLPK
- Sequence (P50750 whole entry, looked up): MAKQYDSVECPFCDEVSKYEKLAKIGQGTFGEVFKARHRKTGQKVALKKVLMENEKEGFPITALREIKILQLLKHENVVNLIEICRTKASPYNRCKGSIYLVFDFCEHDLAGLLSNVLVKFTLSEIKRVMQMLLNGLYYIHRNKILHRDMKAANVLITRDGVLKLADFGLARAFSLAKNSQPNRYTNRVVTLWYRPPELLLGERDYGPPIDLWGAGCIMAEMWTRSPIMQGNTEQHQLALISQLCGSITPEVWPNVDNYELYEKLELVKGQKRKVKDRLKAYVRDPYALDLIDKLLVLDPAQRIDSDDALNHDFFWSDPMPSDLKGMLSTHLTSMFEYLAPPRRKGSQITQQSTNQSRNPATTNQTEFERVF
- assay.procedure: radiometric filter-binding kinase assay, Kinase HotSpot
- assay.context: compound 0.5 µM; ATP 10 µM
Please go through the items and note down their residual activity.
Give bare numbers, in %.

Worked examples, 3 compounds total:
compound: O=C(Nc1cccc(Nc2cc(Nc3cccc(C(F)(F)F)c3)ncn2)c1)C1CC1
system.under.test: CDK9 CCNT1 (human) (UniProt P50750+O60563)
unit.string: %
obs.value: 97.2

compound: Nc1nccc(-c2c(-c3ccc(F)cc3)ncn2C2CCNCC2)n1
system.under.test: CDK9 CCNT1 (human) (UniProt P50750+O60563)
unit.string: %
obs.value: 87.1

compound: O=C1NC(=O)C(c2cn(CCCO)c3ncccc23)=C1c1cnccn1
system.under.test: CDK9 CCNT1 (human) (UniProt P50750+O60563)
unit.string: %
obs.value: 88.3

// input: 2 compounds below; output: residual activity for each
1. CC(C)c1nn(-c2c(Cl)cccc2Cl)c2nc(Cc3ccc(OCCO)cc3)nc(O)c12
2. CCn1cnc2c(Nc3cccc(Cl)c3)nc(N[C@@H]3CCCC[C@@H]3N)nc21

1. 22.7
2. 53.7

Hey, quick one: what's residual activity for each of these?
1. CCN(CC)CCCCN1c2ccccc2Oc2ccc(Cl)cc21
2. O=C1Nc2ccccc2/C1=C1\Nc2ccccc2\C1=N/O
3. Cc1ccc(NC(=O)c2ccc(CN3CCN(C)CC3)cc2)cc1Nc1nccc(-c2cccnc2)n1
4. Cc1nc2cc3nc(-c4cccs4)cnc3cc2n1C
5. O=C1Nc2ccccc2/C1=C1/Nc2ccccc2/C1=N\OCCC(O)CO (configuration not stated)
6. Cn1nc2c3c(cccc31)C(=O)c1ccccc1-2

1: 101; 2: 75.2; 3: 100; 4: 88.3; 5: 52.5; 6: 94.7

For each of the items listed, what is its residual activity?
1. c1cc(-c2cnn3cc(-c4ccc(OCCN5CCCCC5)cc4)cnc23)ccn1
2. CN([C@@H](Cc1ccc(OS(=O)(=O)c2cccc3cnccc23)cc1)C(=O)N1CCN(c2ccccc2)CC1)S(=O)(=O)c1cccc2cnccc12
3. O=C1Cc2c([nH]c3ccc(Br)cc23)-c2ccccc2N1
4. CC(=O)O/N=C1\C(=C2\C(=O)Nc3cc(Br)ccc32)Nc2ccccc21
5. Cn1cnc2cc3c(Nc4cccc(Br)c4)ncnc3cc21
6. O=C1NC(=O)C(c2c[nH]c3ccccc23)=C1c1c[nH]c2ccccc12

1. 65
2. 100
3. 31.3
4. 91.5
5. 88.5
6. 89.9

// each listed compound needs a value for residual activity
1. Cn1sc(=O)n(Cc2ccccc2)c1=O
2. CN(C)C[C@H]1CCn2c(c(C3=C(c4cn(C)c5ccccc45)C(=O)NC3=O)c3ccccc32)C1

[94.2, 39.6]

# return residual activity for each item in the list
1. COc1ccc(OC)c2c(=S)c3ccccc3[nH]c12
2. COc1cc2ncnc(N3CCN(C(=O)Nc4ccc(Oc5ccccc5)cc4)CC3)c2cc1OC
3. COc1cc2ncc(-c3ccccc3)nc2cc1OC

1. 98.8
2. 97.3
3. 83.2
